tested on: M14 melanoma; assay: NCI tumour cell line growth inhibition, 48 h
Where a SMILES comes first, the peptide text is derived from it. [ ]: non-standard residue; d: D form. The star is where a group is joined. Tyr(3-Br) = N[C@@H](Cc1ccc(O)c(Br)c1)C(=O)O; Boc = CC(C)(C)OC(=O)*
reported property: TGI

INSERT INTO assay_data (compound, reported_property, result) VALUES
  ('C/C=C\C(CC(=O)NCCC1CN(S(=O)(=O)C(F)(F)F)c2ccccc21)CC(=O)OC (configuration not stated)', 'TGI', '> 100 µM');

Go through the list and state TGI for each entry.
1. COC(=O)[C@H](Cc1ccc(O)c(Br)c1)NC(=O)[C@H](Cc1ccc(O)cc1)NC(=O)OC(C)(C)C (Boc-Tyr-[Tyr(3-Br)]-OMe)
2. Cc1nc(-c2ccccc2)cc2c1c(=O)oc1ccccc12
3. COC(=O)Nc1nc2ccc(C(=O)c3ccc(N(C)C4COC4)cc3)cc2[nH]1
4. COc1cc(C2SC(N)=Nc3c2c(C)nn3C(=O)c2ccccc2O)ccc1O (configuration not stated)
5. Cc1ccc(S(=O)(=O)N2C[C@](O)(c3ccccc3)[C@H]2C)cc1
6. CC(C)OP(=O)(OC(C)C)/C(C#N)=C/c1ccco1
7. COc1ccc(C2Oc3cc(OC)c(O)c(C)c3[C@H]2C)cc1 (some centres not stated)
8. Nc1nc2cc3ccc(C4CC(O)C(CO)O4)cc3cc2c(=O)[nH]1 (configuration not stated)

Reply |
["> 100 µM", "> 100 µM", "> 100 µM", "> 10 µM", "> 100 µM", "> 100 µM", "> 100 µM", "> 100 µM"]

Would you be so kind as to report TGI for each listed record?
1. CC(=O)Oc1ccc2c(c1)oc1c3ccc(OC(C)=O)cc3n(C)c(=O)c21
2. C=C(C)C1CC/C(C)=C/CC[C@]2(C)O[C@H]2CC/C(COC(C)=O)=C\[C@@H]1O (some centres not stated)
3. Cc1c2c(n(CCc3ccccc3)c1C)N(C)N=C(C#N)S2(=O)=O
4. O=C1N2CCc3c([nH]c4ccccc34)C23CC2CCCCC12S3 (configuration not stated)
5. CN(/N=C/c1cccc2cccnc12)c1ccc([N+](=O)[O-])cc1
6. O=C(N/N=C/c1ccc([N+](=O)[O-])o1)c1ccc(C(=O)N/N=C/c2ccc([N+](=O)[O-])o2)cc1
7. CN(C)c1ncc(-c2ccc(C(F)(F)F)cc2)c(NC2CCCCCC2)n1

Reply |
1. > 100 µM
2. > 50 µM
3. > 100 µM
4. > 100 µM
5. > 100 µM
6. > 100 µM
7. > 100 µM

For every item below, please supply its TGI.
1. CN1CCN(c2ccc(Nc3nc(N)c(C(=O)c4ccc5c(c4)OCCO5)s3)cc2)CC1
2. COc1ccc(C(=O)C(c2ccc(OC)cc2)C2OC(=O)C(Cl)=C2Cl)cc1 (configuration not stated)
3. O=[N+]([O-])c1ccc(/C=N/Nc2nnc3c4ccccc4c4ncccc4c3n2)o1
4. CC(=O)[O-].[Mn+3].[O-]c1ccccc1C=NCCN=Cc1ccccc1[O-]
5. Cc1oc(N)c(S(=O)(=O)c2ccc(Cl)cc2)c1C
6. COC1=CC23CCCN2CCc2cc4c(cc2C3C1O)OCO4 (configuration not stated)

Reply |
1. > 18.1 µM
2. > 100 µM
3. > 10 µM
4. > 100 µM
5. > 100 µM
6. > 100 µM

From: PubChem BioAssay (NCI)
